Values from PubChem BioAssay (Tox21)

experiment: qHTS assay to identify small molecule antagonists of the estrogen receptor beta (ER-beta) signaling pathway - cell viability counter screen (AID 1259382); details: ER-beta-UAS-bla HEK293T viability, CellTiter-Glo luminescence, 16 h; series mostly up to 92.4 µM;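 note: HEK293T cells carrying ER-beta-UAS-bla reporter stimulated with estradiol; % is set by controls: 0 for no effect and ±100 for the full control effect; nearly all actives have a fitted effect of over 55% in size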
Records with an inconclusive call do not appear. Calls of active or inactive are those of the source. Calls come from the whole dose curve; as a rule, active = well fitted cell-killing curve with a large enough effect in the repeat runs; inconclusive = weak or mixed curves; inactive = flat fitted curve, though single readings scatter.
Assign a class; possible classes are active, inactive

Q. Identify the outcome logged in this assay for the compound shown: C[C@@H]1C[C@H]2[C@@H]3CCC4=CC(=O)C=C[C@]4(C)[C@@]3(F)[C@@H](O)C[C@]2(C)[C@@]1(O)C(=O)CO
A. inactive

Q. Identify the outcome logged in this assay for the compound shown: CCCCCCOC(=O)CCCCCCCC(=O)OCCCCCC
A. inactive

Q. Identify the outcome logged in this assay for the compound shown: CC(C)(C)C(=O)O
A. inactive

Q. Identify the outcome logged in this assay for the compound shown: CN(C(=O)C(Cl)Cl)c1ccc(OC(=O)c2ccco2)cc1
A. inactive

Q. Identify the outcome logged in this assay for the compound shown: CCCCCCCC/C=C\CCCCCCCC(=O)OC
A. inactive

Q. Identify the outcome logged in this assay for the compound shown: Cc1ccccc1N1C(=O)c2cc(S(N)(=O)=O)c(Cl)cc2NC1C (stereo unspecified)
A. inactive

Q. Identify the outcome logged in this assay for the compound shown: Cc1occc1C(=O)Nc1ccc(C(=O)N2CCC(F)(F)/C(=C\C(=O)N3CCC(N4CCCCC4)CC3)c3ccccc32)cc1
A. inactive

Q. Identify the outcome logged in this assay for the compound shown: CO[C@H]1C=CO[C@@]2(C)Oc3c(C)c(O)c4c(O)c(c5c(c4c3C2=O)=NC2(CCN(CC(C)C)CC2)N=5)NC(=O)/C(C)=C\C=C/[C@H](C)[C@H](O)[C@@H](C)[C@@H](O)[C@@H](C)[C@H](OC(C)=O)[C@@H]1C
A. inactive

Q. Identify the outcome logged in this assay for the compound shown: Brc1cc(-c2ccc(Br)c(Br)c2Br)cc(Br)c1Br
A. inactive

Q. Identify the outcome logged in this assay for the compound shown: CC(=O)Nc1ccc(N)cc1
A. inactive

Q. Identify the outcome logged in this assay for the compound shown: CC1CC(O)CC(C)(C)C1 (stereo unspecified)
A. inactive

Q. Identify the outcome logged in this assay for the compound shown: Cc1ccc(S(=O)(=O)NC2CCCCC2)cc1
A. inactive

Q. Identify the outcome logged in this assay for the compound shown: C[Si]1(C)O[Si](C)(C)O[Si](C)(C)O1
A. inactive

Q. Identify the outcome logged in this assay for the compound shown: CCOC(=O)[C@@H](C)Oc1ccc(Oc2nc3ccc(Cl)cc3o2)cc1
A. inactive

Q. Identify the outcome logged in this assay for the compound shown: CCC(C(=O)OCCN(CC)CC)c1ccccc1 (stereo unspecified)
A. inactive

Q. Identify the outcome logged in this assay for the compound shown: N#C[C@@H]1C[C@@H]2C[C@@H]2N1C(=O)[C@@H](N)C12CC3CC(CC(O)(C3)C1)C2
A. inactive

Q. Identify the outcome logged in this assay for the compound shown: C[C@]12CCC(=O)C=C1C=C[C@@H]1[C@@H]2CC[C@@]2(C)[C@H]1CC[C@@]21CCC(=O)O1
A. inactive

###

assay: qHTS assay for small molecules that induce genotoxicity in human embryonic kidney cells expressing luciferase-tagged ATAD5 (AID 651632); details: HEK293T ATAD5-luciferase induction, 16 h; series mostly up to 83.3 µM; note: nearly all actives have a fitted effect of over 15% in size; for activation: % is set by controls: 0 for no effect and ±100 for the full control effect
Inconclusive results are not listed. Active and inactive are the calls of the source. Calls follow the shape of the dose curve; as a rule, active = well fitted activation curve with a large enough effect in the repeat runs; inconclusive = weak or mixed curves; inactive = no such curve, though single readings can be large or run the other way.
Assign a class; possible classes are True for active, False for inactive

Q. Identify the outcome logged in this assay for the compound shown: NC(=O)N(O)[C@@H]1COc2cc(OCc3ccccc3)ccc21
A. True

Q. Identify the outcome logged in this assay for the compound shown: CCN(CC)CCNC(=O)c1ccc(NC(C)=O)cc1
A. False

Q. Identify the outcome logged in this assay for the compound shown: CCC(Cc1ccccc1)(C(=O)c1ccc(N2CCOCC2)cc1)N(C)C (stereo unspecified)
A. False

Q. Identify the outcome logged in this assay for the compound shown: CC(C)CCCC(=O)O
A. False

Q. Identify the outcome logged in this assay for the compound shown: O=C(N/N=C/c1ccc([N+](=O)[O-])o1)c1ccc(O)cc1
A. False

Q. Identify the outcome logged in this assay for the compound shown: C[C@@H]1C[C@H]2[C@@H]3CCC4=CC(=O)C=C[C@]4(C)[C@@]3(F)[C@@H](O)C[C@]2(C)[C@H]1C(=O)CO
A. False

###

For each record, write down the corresponding cytotoxicity increase.
Experiment: A CellTox Green Cytotoxicity Assay to monitor cytotoxicity in HepG2 cells - 32 hour (AID 1224883); note: % is set by controls: 0 for no effect and ±100 for the full control effect; nearly all actives have a fitted effect of over 50% in size
Conditions: CellTox Green fluorescence; series mostly up to 76.8 µM
Description: National Center for Advancing Translational Sciences [NCATS] NIH Chemical Genomics Center [NCGC] U.S. Environmental Protection Agency [EPA] National Institutes of Environmental Health Sciences [NIEHS] National Toxicology Program [NTP] Cell-based models are critical for drug discovery. […] Viable cells produce no appreciable increases in fluorescence. Therefore, the fluorescence signal produced by the binding interaction with dead cell DNA is proportional to cytotoxicity. […]
Results filed as inconclusive are left out. Calls of active or inactive are those of the source. Calls follow the shape of the dose curve; as a rule, active = well fitted activation curve with a large enough effect in the repeat runs; inconclusive = weak or mixed curves; inactive = flat fitted curve, though single readings scatter.

Study these solved cases before continuing.
Q. Entry [O]=[Bi] : reported cytotoxicity increase = ?
A. -9.49% [at 6.97 µM] (inactive)

Q. Entry CC1CN(c2cc3c(cc2F)c(=O)c(C(=O)O)cn3-c2ccc(F)cc2F)CCN1 (centres undefined) : reported cytotoxicity increase = ?
A. 0.181% [at 6.97 µM] (inactive)

Q. Entry CCCC(=O)O[C@]1(C(=O)COC(=O)CC)CC[C@H]2[C@@H]3CCC4=CC(=O)CC[C@]4(C)[C@H]3[C@@H](O)C[C@@]21C : reported cytotoxicity increase = ?
A. -8.25% [at 15.8 µM] (inactive)

Moving on to the next molecule.
Q. Entry CCCCCCCCCCCCCCCCBr : reported cytotoxicity increase = ?
A. -8.22% [at 15.8 µM] (inactive)

###

biological target: Cytochrome P450 3A4 (Homo sapiens) (UniProt P08684); experiment: Cytochrome P450 Family 3 Subfamily A Member 4 (CYP3A4) small molecule antagonists: luciferase reporter qHTS assay (AID 1671201); conditions: P450-Glo CYP3A4 enzyme, luciferin luminescence, 1 h; series mostly up to 115 µM; note: nearly all actives have a fitted effect of over 50% in size
Sequence (P08684 whole entry, looked up): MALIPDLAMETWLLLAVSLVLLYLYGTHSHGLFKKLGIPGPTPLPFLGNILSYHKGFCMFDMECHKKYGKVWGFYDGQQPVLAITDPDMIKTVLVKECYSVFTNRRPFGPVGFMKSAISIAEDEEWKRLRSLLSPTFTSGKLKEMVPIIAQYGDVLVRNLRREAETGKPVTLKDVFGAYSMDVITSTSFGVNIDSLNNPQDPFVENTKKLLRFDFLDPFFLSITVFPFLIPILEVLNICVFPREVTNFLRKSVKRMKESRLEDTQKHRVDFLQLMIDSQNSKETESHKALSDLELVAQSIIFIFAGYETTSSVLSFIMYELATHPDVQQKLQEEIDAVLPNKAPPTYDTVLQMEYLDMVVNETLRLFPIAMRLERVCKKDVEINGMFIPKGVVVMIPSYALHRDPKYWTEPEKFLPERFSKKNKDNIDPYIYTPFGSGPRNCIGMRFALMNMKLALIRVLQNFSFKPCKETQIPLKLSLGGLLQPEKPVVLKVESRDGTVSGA
Records with an inconclusive call do not appear. Calls of active or inactive are those of the source. Calls come from the whole dose curve; as a rule, active = well fitted inhibition curve with a large enough effect in the repeat runs; inconclusive = weak or mixed curves; inactive = no such curve, though single readings can be large or run the other way.
Assign a class; possible classes are TRUE (active), FALSE (inactive)

The examples below pair each entry with its known result.
Q. Identify the outcome logged in this assay for the molecule shown: Cc1cc(S(=O)(=O)O)ccc1N=Nc1c(O)ccc2ccccc12
A. TRUE

Q. Identify the outcome logged in this assay for the molecule shown: NC(=O)Nc1ccc(Cl)cc1
A. FALSE

Q. Identify the outcome logged in this assay for the molecule shown: CCOC(=O)[C@@H](C)Oc1ccc(Oc2nc3ccc(Cl)cc3o2)cc1
A. FALSE

Q. Identify the outcome logged in this assay for the molecule shown: CCC(C(=O)OCCN(CC)CC)c1ccccc1 (configuration not stated)
A. FALSE

***
Q. Identify the outcome logged in this assay for the molecule shown: Nc1c(I)cc(I)c(C(=O)N(CCC(=O)O)c2ccccc2)c1I
A. FALSE

Q. Identify the outcome logged in this assay for the molecule shown: CCCCCCCC/C=C\CCCCCCCC(=O)OC(CO)CO
A. TRUE

Q. Identify the outcome logged in this assay for the molecule shown: CC1(C)O[C@@H]2C[C@H]3[C@@H]4CCC5=CC(=O)C=C[C@]5(C)[C@H]4[C@@H](O)C[C@]3(C)[C@]2(C(=O)CO)O1
A. TRUE

Q. Identify the outcome logged in this assay for the molecule shown: COCC(O)CO (configuration not stated)
A. FALSE

Q. Identify the outcome logged in this assay for the molecule shown: CCC1(C)CC(=O)NC1=O (configuration not stated)
A. FALSE

Q. Identify the outcome logged in this assay for the molecule shown: Nc1ccc(S(=O)(=O)O)cc1
A. FALSE

Q. Identify the outcome logged in this assay for the molecule shown: O=C(O)c1c(O)c(-c2ccccc2)nc2ccccc12
A. FALSE

Q. Identify the outcome logged in this assay for the molecule shown: COc1ccc(C(=O)c2cccc(O)c2)c(OC)c1
A. TRUE

###

assay: qHTS assay to test for compound auto fluorescence at 590 nm (red) in HepG2 cells (AID 720674); conditions: HepG2 autofluorescence, red 540/590 nm, 1 h; series mostly up to 91.3 µM; note: % is set by controls: 0 for no effect and ±100 for the full control effect
Activity calls are given as the source filed them. Calls come from the whole dose curve; as a rule, active = well fitted curve in the direction sought with a large enough effect in the repeat runs; inconclusive = weak or mixed curves; inactive = flat fitted curve, though single readings scatter.
observation_type: fluorescence, relative to Rose Bengal

Study these solved cases before continuing.
Q. Entry CNC(=O)N(c1ccccc1)c1ccccc1 : reported fluorescence, relative to Rose Bengal = ?
A. inactive

Q. Entry Cc1nc2ccccn2c(=O)c1CCN1CCC(C(=O)c2ccc(F)cc2)CC1 : reported fluorescence, relative to Rose Bengal = ?
A. inactive

Q. Entry CC1=CC(O)CC(C)(C)C1 (stereo unspecified) : reported fluorescence, relative to Rose Bengal = ?
A. inactive

Q. Entry CN(C)CCOC1=Cc2ccccc2Sc2ccc(Cl)cc21 : reported fluorescence, relative to Rose Bengal = ?
A. inactive

Q. Entry C[C@]12CCC(=O)C=C1C=C[C@@H]1[C@@H]2CC[C@@]2(C)[C@H]1CC[C@@]21CCC(=O)O1 : reported fluorescence, relative to Rose Bengal = ?
A. inactive

Look at each molecule and report its fluorescence, relative to Rose Bengal.
1. CCCCC(CC)COC(=O)COc1ccc(Cl)cc1C (stereo unspecified)
2. CC1=C(/C=C/C(C)=C\C=C\C(C)=C\C(=O)O)C(C)(C)CCC1
3. CCC(=O)Oc1ccc(/C(CC)=C(\CC)c2ccc(OC(=O)CC)cc2)cc1
4. Cc1ccccc1N1C(=O)c2cc(S(N)(=O)=O)c(Cl)cc2NC1C (stereo unspecified)
5. CC1CC(=O)NN=C1c1ccc(NCC(C)(C)NCC(O)COc2cc(Cl)ccc2C#N)cc1 (stereo unspecified)
6. c1cnc2c(n1)CCCC2

A.
1. inactive
2. inactive
3. inactive
4. inactive
5. inactive
6. inactive
